Reported Activity is given for each of the following molecules.
assay: Antioxidant activity assessed as DPPH free radical scavenging activity at 20 uM incubated in dark for 20 mins relative to control; format: functional
Outcome measure: Activity (%)

Molecule | Unit tag | Assay value
COc1cc(/C=C/C(=O)C2=C(/C=C/c3ccc(O)c(OC)c3)NC(=S)NC2c2ccccc2)ccc1O (stereo not drawn) | % | 38
COc1cc(/C=C/C(=O)C2=C(/C=C/c3ccc(O)c(OC)c3)NC(=O)NC2c2cccc([N+](=O)[O-])c2)ccc1O (stereo not drawn) | % | 66.3
COc1cc(/C=C/C(=O)C2=C(/C=C/c3ccc(O)c(OC)c3)NC(=S)NC2c2ccccc2O)ccc1O (stereo not drawn) | % | 72.3

* * *

experiment: Antioxidant activity assessed as DPPH free radical scavenging activity at 20 uM incubated in dark for 20 mins relative to control; format: functional
Reported Activity is given for each of the following molecules.

Molecule | Activity (%)
COc1cc(/C=C/C(=O)C2=C(/C=C/c3ccc(O)c(OC)c3)NC(=S)NC2c2ccc(C)cc2)ccc1O (centres undefined) | 51
COc1cc(/C=C/C(=O)C2=C(/C=C/c3ccc(O)c(OC)c3)NC(=O)NC2c2c(Cl)cccc2Cl)ccc1O (centres undefined) | 31.9
COc1cc(/C=C/C(=O)C2=C(/C=C/c3ccc(O)c(OC)c3)NC(=S)NC2c2c(Cl)cccc2Cl)ccc1O (centres undefined) | 43.2
COc1cc(/C=C/C(=O)C2=C(/C=C/c3ccc(O)c(OC)c3)NC(=O)NC2c2ccccc2Cl)ccc1O (centres undefined) | 46

* * *

assay: Antioxidant activity assessed as nitric oxide radical scavenging activity at 10 uM incubated in dark for 20 mins relative to control; assay type: functional
Outcome measure: Activity (%)

Compound | Assay value
COc1cc(/C=C/C(=O)C2=C(/C=C/c3ccc(O)c(OC)c3)NC(=O)NC2c2cccc([N+](=O)[O-])c2)ccc1O (centres undefined) | 19.9
COc1cc(/C=C/C(=O)C2=C(/C=C/c3ccc(O)c(OC)c3)NC(=S)NC2c2ccccc2Cl)ccc1O (centres undefined) | 21.2
COc1cc(/C=C/C(=O)C2=C(/C=C/c3ccc(O)c(OC)c3)NC(=S)NC2c2ccccc2)ccc1O (centres undefined) | 22
COc1cc(/C=C/C(=O)C2=C(/C=C/c3ccc(O)c(OC)c3)NC(=O)NC2c2ccc(N(C)C)cc2)ccc1O (centres undefined) | 69.9

* * *

assay: Antioxidant activity assessed as DPPH free radical scavenging activity at 50 uM incubated in dark for 20 mins relative to control; format: functional
Threshold check on Activity: strictly below 50% is Satisfied; on or above 50% is Not satisfied.

Compound | Answer label
COc1cc(/C=C/C(=O)C2=C(/C=C/c3ccc(O)c(OC)c3)NC(=O)NC2c2ccc(N(C)C)cc2)ccc1O (stereo not drawn) | Not satisfied
COc1cc(/C=C/C(=O)C2=C(/C=C/c3ccc(O)c(OC)c3)NC(=S)NC2c2ccccc2)ccc1O (stereo not drawn) | Satisfied
COc1cc(/C=C/C(=O)C2=C(/C=C/c3ccc(O)c(OC)c3)NC(=O)NC2c2ccc(C)cc2)ccc1O (stereo not drawn) | Satisfied
COc1cc(/C=C/C(=O)C2=C(/C=C/c3ccc(O)c(OC)c3)NC(=O)NC2c2ccccc2)ccc1O (stereo not drawn) | Satisfied
COc1cc(/C=C/C(=O)C2=C(/C=C/c3ccc(O)c(OC)c3)NC(=O)NC2c2ccccc2Cl)ccc1O (stereo not drawn) | Not satisfied
COc1cc(/C=C/C(=O)C2=C(/C=C/c3ccc(O)c(OC)c3)NC(=S)NC2c2ccc(N(C)C)cc2)ccc1O (stereo not drawn) | Not satisfied
COc1cc(/C=C/C(=O)C2=C(/C=C/c3ccc(O)c(OC)c3)NC(=S)NC2c2ccccc2Cl)ccc1O (stereo not drawn) | Not satisfied

# credit: ChEMBL document CHEMBL3856222
